Reported values of pEC50 for individual entries
- test_target: Chk2 (Homo sapiens, UniProt O96017)
- Sequence (O96017 whole entry): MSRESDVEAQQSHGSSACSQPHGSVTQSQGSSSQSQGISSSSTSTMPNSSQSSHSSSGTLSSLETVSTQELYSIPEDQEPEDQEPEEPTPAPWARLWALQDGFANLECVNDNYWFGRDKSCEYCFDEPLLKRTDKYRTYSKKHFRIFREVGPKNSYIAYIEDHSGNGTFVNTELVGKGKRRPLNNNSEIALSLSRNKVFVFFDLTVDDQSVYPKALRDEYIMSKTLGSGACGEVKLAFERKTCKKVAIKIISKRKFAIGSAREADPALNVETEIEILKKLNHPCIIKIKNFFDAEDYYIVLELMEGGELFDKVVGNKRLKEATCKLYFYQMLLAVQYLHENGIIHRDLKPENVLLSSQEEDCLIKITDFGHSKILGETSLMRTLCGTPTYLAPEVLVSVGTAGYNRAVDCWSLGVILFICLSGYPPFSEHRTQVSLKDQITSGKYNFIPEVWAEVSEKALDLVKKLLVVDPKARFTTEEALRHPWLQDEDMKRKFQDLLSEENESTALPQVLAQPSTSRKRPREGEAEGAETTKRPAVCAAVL
- experiment_notes: Chk2 inhibitor IMAP assay (high-throughput Chk2 screening assay)
- test_conditions: IMAP fluorescence polarization assay, 10 μM ATP
pEC50: −log10 of the molar value.

Consider the worked cases shown below.
# molecule_smiles, test_target, result
data = [
    ("C/C(=N\\NC(=N)N)c1ccc2[nH]c(C(=O)Nc3cccc(N)c3)cc2c1", "Chk2 (Homo sapiens, UniProt O96017)", "6.00 to 6.52"),
    ("C/C(=N\\NC(=N)N)c1ccc(NC(=O)c2cc3cc(N)ccc3[nH]2)cc1", "Chk2 (Homo sapiens, UniProt O96017)", "6.00 to 6.52"),
    ("C/C(=N\\NC(=N)N)c1ccc2[nH]c(C(=O)Nc3ccc(N)cc3)cc2c1", "Chk2 (Homo sapiens, UniProt O96017)", "5.00 to 6.00"),
    ("C/C(=N\\NC(=N)N)c1ccc(NC(=O)c2cc3cc(O)ccc3[nH]2)cc1", "Chk2 (Homo sapiens, UniProt O96017)", "6.00 to 6.52"),
    ("C/C(=N/NC(=N)N)c1ccc(NC(=O)c2cc3cc(OC(F)(F)F)ccc3[nH]2)cc1", "Chk2 (Homo sapiens, UniProt O96017)", "5.00 to 6.00"),
]

Lookup: Request the reported pEC50 associated with "CC(=NNC(=N)N)c1ccc(NC(=O)c2cc3cc([N+](=O)[O-])ccc3[nH]2)cc1"
Found: < 5.00

Lookup: Request the reported pEC50 associated with "CC(=O)Nc1ccc2cc(C(=O)Nc3ccc(/C(C)=N/NC(=N)N)cc3)[nH]c2c1"
Found: 6.00 to 6.52

Lookup: Request the reported pEC50 associated with "C/C(=N\NC(=N)N)c1ccc(NC(=O)Nc2ccc(C)cc2)cc1"
Found: 5.00 to 6.00

* * *

Reported values of EC50 for individual entries
- test_target: Chk2 (Homo sapiens, UniProt O96017)
- experiment_notes: Chk2 inhibitor IMAP assay (high-throughput Chk2 screening assay)
- test_conditions: IMAP fluorescence polarization assay, 10 μM ATP

Consider the worked cases shown below.
# compound, test_target, result
rows = [
    ("COc1cccc2cc(C(=O)Nc3ccc(C(C)=NNC(=N)N)cc3)[nH]c12", "Chk2 (Homo sapiens, UniProt O96017)", "1000 to 10000 nM"),
    ("C/C(=N\\NC(=N)N)c1ccc(NC(=O)Nc2ccc(/C(C)=N/NC3=NCCN3)cc2)cc1", "Chk2 (Homo sapiens, UniProt O96017)", "< 100 nM"),
]

Lookup: Request the reported EC50 associated with "CC(=NNC(=N)N)c1ccc(NC(=O)Nc2ccc3c(c2)CCC3=NNC(=N)N)cc1"
Found: 300 to 1000 nM

Lookup: Request the reported EC50 associated with CCC/C(=N/NC(=N)N)c1ccc(NC(=O)c2cc3cc(OC)ccc3[nH]2)cc1 (single isomer, unassigned) [Compound 24]
Found: < 100 nM

Lookup: Request the reported EC50 associated with "C/C(=N\NC(=N)N)c1ccc(NC(=O)c2cc3cccc([N+](=O)[O-])c3[nH]2)cc1C"
Found: 1000 to 10000 nM

Lookup: Request the reported EC50 associated with "C/C(=N/NC(=N)N)c1ccc(NC(=O)Nc2ccc(/C(C)=N/NC(=N)N)cc2)c2ccccc12"
Found: 1000 to 10000 nM

Lookup: Request the reported EC50 associated with "C/C(=N\NC(=N)N)c1ccc(NC(=O)c2cc3cccc([N+](=O)[O-])c3[nH]2)cc1"
Found: < 100 nM
